- Tested on: COLO 205 colon
- test-protocol: NCI tumour cell line growth inhibition, 48 h; in the data active means GI50 below about 0.43 µM; inactive means the rest
Classes used: 1 for active, -1 for inactive

* COc1cc(/C=C2\CCC/C(=C\c3ccc(OCC4CO4)c(OC)c3)C2=O)ccc1OCC1CO1 (centres undefined) | -1
* CCOC(=O)C1=C(N)Oc2c(sc3c(C)cccc23)C1c1ccc(F)cc1 (centres undefined) | -1
* Oc1ccc(N=Nc2nccs2)c(O)c1 | -1
* O=C(NNc1cnccn1)c1nc2cc(F)ccc2n2cccc12 | 1
* COc1ccc(-c2ccc(NNC(=O)c3ccc(F)cc3)nn2)cc1OC | -1
* COc1cc(/C=C/C(=O)C(C(=O)/C=C/c2ccc(OC(=O)CCNC34CC5CC(CC(C5)C3)C4)c(OC)c2)C(=O)CCNC23CC4CC(CC(C4)C2)C3)ccc1OC(=O)CCNC12CC3CC(CC(C3)C1)C2 (centres undefined) | -1
* N#CC(C#N)=C1CCCOc2c1ccc1ccccc21 | -1
* O=C(N[C@@H](Cc1coc2ccccc12)B(O)O)[C@@H]1C[C@H]2CC[C@@H]1O2 | -1
* CC1(C)N=C(N)N=C(N)N1c1cccc(OCCOc2cccc([N+](=O)[O-])c2)c1 | -1
